Listed compounds paired with reported pIC50
target: CXCR7 (Homo sapiens, UniProt P25106); construct: expressed in transfected cells; host or cells: CHO cells (CHO-CXCR7), transgenes maintained with Hygromycin B and G418; experiment: CXCR7 β-arrestin recruitment assay in CHO-CXCR7 cells (ProLink/EA β-galactosidase complementation), induced by human SDF-1a; type: cell-based; conditions: assay buffer, SDF-1a at EC50 concentration
Sequence (P25106 whole entry): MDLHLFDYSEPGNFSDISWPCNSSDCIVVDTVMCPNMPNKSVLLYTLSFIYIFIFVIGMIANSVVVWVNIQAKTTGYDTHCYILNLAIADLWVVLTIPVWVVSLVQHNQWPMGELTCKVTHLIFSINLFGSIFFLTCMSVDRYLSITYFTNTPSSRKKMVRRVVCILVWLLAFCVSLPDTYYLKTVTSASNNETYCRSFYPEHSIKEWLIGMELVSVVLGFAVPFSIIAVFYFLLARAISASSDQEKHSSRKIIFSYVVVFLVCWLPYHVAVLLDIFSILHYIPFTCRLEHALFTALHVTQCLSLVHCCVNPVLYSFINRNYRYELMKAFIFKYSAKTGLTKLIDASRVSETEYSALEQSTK
pIC50: −log10 of the molar value.

Known pIC50 results, listed for orientation:
CCOc1cccc(C(C)(C)NC(=O)CC2(NC(=O)c3cc(-c4ccc(F)cc4F)on3)CN([C@H]3CC[C@@](C)(O)CC3)C2)c1: 7.00 to 8.30
CC(C)(NC(=O)CC1(NC(=O)c2cc(-c3ccc(F)cc3F)on2)CN([C@H]2CC[C@@](C)(O)CC2)C1)c1ccccc1: > 8.30
CC(C)(NC(=O)CC1(NC(=O)c2cc(-c3ccc(F)cc3F)on2)CN(CC2CC2)C1)c1ccccn1: 7.00 to 8.30
COc1cccc(C(C)(C)NC(=O)CC2(NC(=O)c3cc(-c4ccc(F)cc4F)on3)CN(C3CCCCC3)C2)n1: 7.00 to 8.30

Entry COc1cccc(C(C)(C)NC(=O)CC2(NC(=O)c3cc(-c4ccc(F)cc4F)on3)CN(CC3CC3)C2)c1 has what pIC50?
6.00 to 7.00

Entry CC(C)(NC(=O)CC1(NC(=O)c2cc(-c3ccc(F)cc3F)on2)CN([C@H]2CC[C@](C)(O)CC2)C1)c1ncccc1F has what pIC50?
7.00 to 8.30

Entry Cc1cccc(C(C)(C)NC(=O)CC2(NC(=O)c3cc(-c4ccc(F)cc4F)on3)CN(C3CCCCC3)C2)n1 has what pIC50?
> 8.30

Entry Cc1ccnc(C(C)(C)NC(=O)CC2(NC(=O)c3cc(-c4ccc(F)cc4F)on3)CN([C@H]3CC[C@](C)(O)CC3)C2)n1 has what pIC50?
> 8.30

Entry COc1cc(C)nc(C(C)(C)NC(=O)CC2(NC(=O)c3cc(-c4ccc(F)cc4F)on3)CN([C@H]3CC[C@](C)(O)CC3)C2)c1 has what pIC50?
7.00 to 8.30

Entry CC(C)(NC(=O)CC1(NC(=O)c2cc(-c3ccc(F)cc3F)on2)CN([C@H]2CC[C@](C)(O)CC2)C1)c1ccccc1F has what pIC50?
> 8.30

The reported numbers originate from patent US12448373B2.
